System: A549 cells
Test: MTT assay, inhibition of tumour cell growth
Assay type: cell-based, human
Settings: 24 h, mean ± s, n = 3
Method: The tumour cell suspension in logarithmic growth phase, containing about 5 × 10^3 cells, was taken and seeded onto a 96-well plate and gently shaken to disperse the cells evenly at the bottom of the plate. The cells were incubated in a constant temperature (37 °C) incubator for 24 h. […] The absorbance of the OD value was measured at 490 nm by a multifunctional microplate analyzer. […]
In this section we review reported pIC50 values for a set of compounds.
Value format note: pIC50 is -log10 of concentration (mol/L); just state the number.

Exam item: Bench note: what pIC50 did O=C1C(=Cc2ccccc2Cl)CNCC1=Cc1ccccc1Cl show?
Marked response: 5.32

Exam item: // repeat for O=C1C(=Cc2cc(Cl)ccc2Br)CNCC1=Cc1cc(Cl)ccc1Br and report
Marked response: 5.32

Exam item: How about this compound: O=C1C(=Cc2ccc(Br)cc2F)CNCC1=Cc1ccc(Br)cc1F
Marked response: 4.69
